// data source = ChEMBL document CHEMBL3988442

Test system: Mycobacterium tuberculosis
Test: Cornell M. t heat shock assay; further: in the data most compounds retested in dose-response had high values
Type: functional, organism-based
Design: dose or concentration left out as unconfirmed
Screen size: about 69,000 compounds; about 950 (1.4%) showed an effect of 50% or more. The list comes from a sample in which strong results are over-represented; it also holds close analogues and randomly drawn compounds.
recorded endpoint: Percent Effect (%)

* Cc1cc(C)c(N(CC(O)CNCc2ccco2)S(C)(=O)=O)c(C)c1.O=C(O)c1ccccc1 (centres undefined) | 18.07
* Cl.O=C(C1CCC1)N1C[C@@H](c2ccsc2)[C@@H]2CN(C3CCCC3)CC[C@@H]21 | -4.778
* Cl.c1cc(CNCc2cccc3c2OCCCO3)cc(Cn2cncn2)c1 | -3.738
* O[C@@H]1CN(Cc2cccnc2)C[C@H]1Oc1ccccc1 | -6.962
